biological target: Protein artemis (Homo sapiens); assay: blockers of Artemis DNA hairpin overhang cleavage – biochemical, fluorescence intensity, FAM/BHQ-1 hairpin substrate, primary screen (AID 686954); settings: recombinant Artemis, quenched FAM hairpin cleavage fluorescence; at 10 µM; stronger effect = higher value
Out of some 30,000 compounds screened, about 240 (0.8%) were called active. This is one part of a sample in which actives are shown more often than they occur.
metric.name: inhibition (%)
One number for each entry, in %.

Completed entries (count: 5):
[
  {
    "compound": "O=C(COc1ccc2oc3c(c2c1)CCCC3)Nc1ccccn1",
    "target.of.assay": "Protein artemis (Homo sapiens)",
    "inhibition, %": -4.41
  },
  {
    "compound": "CCCCNC(=O)CSc1nc2ccc(NC(=O)CSc3nnc(COc4ccccc4C)n3C)cc2s1",
    "target.of.assay": "Protein artemis (Homo sapiens)",
    "inhibition, %": 1.88
  },
  {
    "compound": "CC(=O)N1Cc2ccccc2CC1C(=O)O (centres undefined)",
    "target.of.assay": "Protein artemis (Homo sapiens)",
    "inhibition, %": -0.69
  },
  {
    "compound": "Cc1ccc(C2NC(=S)NC3=C2N2CCC3CC2)cc1 (centres undefined)",
    "target.of.assay": "Protein artemis (Homo sapiens)",
    "inhibition, %": -3.09
  },
  {
    "compound": "COc1cccc(CNc2nc3nc4c(c(=O)n3[nH]2)CCC4)c1",
    "target.of.assay": "Protein artemis (Homo sapiens)",
    "inhibition, %": -6.09
  }
]

Please look at the items below and tell me inhibition for each one, in order.
1. Cc1ccc2nc(SC(C)C(=O)NCc3ccco3)[nH]c2c1 (centres undefined)
2. CCOC(=O)c1nc(Nc2ccc(C(=O)OC)cc2)c2ccccc2n1
3. Cc1cc(=O)n2c3c(cccc13)CCC2
4. CC(=O)c1sc(NC(=O)c2cccc3ccccc23)nc1C
5. O=C(O)C1CCN1C1CCCCC1 (centres undefined)
6. Cc1cccc(N2CCN(C(c3ccccc3)c3nnnn3CC3CCCO3)CC2)c1C (centres undefined)
7. COC(=O)C1=C(Nc2ccc(OC)cc2)C=C(C)C(C(=O)OC)C1c1ccc(C)cc1 (centres undefined)
8. Cc1ccc(NC(=S)NC(=O)c2ccc(-c3ccccc3)cc2)c(C)c1

1. 4.88
2. -0.44
3. -4.67
4. 5.24
5. 0.02
6. 1.54
7. -2.07
8. 8.05

Please look at the items below and tell me inhibition for each one, in order.
1. CCOC(=O)C1CCc2nc3ccccc3c(=O)n21 (centres undefined)
2. CCCCOC(=O)Nc1sc2nc(C)cc(C)c2c1-n1cccc1
3. COc1cc(CNCc2cccs2)cc(Br)c1OC
4. N#C/C(=C(/O)COc1cccc2ccccc12)c1nc2ccccc2[nH]1

1. -9.86
2. 6.76
3. -2.14
4. -3.72

###

target: Protein artemis (Homo sapiens) (UniProt Q96SD1); experiment: blockers of Artemis DNA hairpin overhang cleavage – biochemical, fluorescence intensity, FAM/BHQ-1 hairpin substrate, primary screen (AID 686954); settings: recombinant Artemis, quenched FAM hairpin cleavage fluorescence; at 10 µM; stronger effect = higher value
Sequence (Q96SD1 whole entry, looked up): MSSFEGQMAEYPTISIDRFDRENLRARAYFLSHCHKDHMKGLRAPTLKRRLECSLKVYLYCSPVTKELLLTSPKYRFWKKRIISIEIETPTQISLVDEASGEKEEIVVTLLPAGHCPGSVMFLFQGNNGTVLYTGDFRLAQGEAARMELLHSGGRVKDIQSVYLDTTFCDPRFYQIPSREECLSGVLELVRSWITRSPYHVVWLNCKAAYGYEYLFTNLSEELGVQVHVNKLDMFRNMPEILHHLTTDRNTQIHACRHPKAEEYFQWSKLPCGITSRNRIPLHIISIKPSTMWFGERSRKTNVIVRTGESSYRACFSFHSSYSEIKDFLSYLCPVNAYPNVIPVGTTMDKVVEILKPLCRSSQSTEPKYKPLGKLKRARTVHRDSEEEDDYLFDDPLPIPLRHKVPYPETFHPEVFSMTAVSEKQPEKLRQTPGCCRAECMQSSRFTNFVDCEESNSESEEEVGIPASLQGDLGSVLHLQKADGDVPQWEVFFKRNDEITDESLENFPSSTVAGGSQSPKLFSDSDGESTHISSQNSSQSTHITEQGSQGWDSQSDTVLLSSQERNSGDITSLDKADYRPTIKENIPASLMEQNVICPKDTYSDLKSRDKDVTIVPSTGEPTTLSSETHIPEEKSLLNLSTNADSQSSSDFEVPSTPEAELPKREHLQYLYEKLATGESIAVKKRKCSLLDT
In all, about 30,000 compounds went through this assay and about 240 (0.8%) were called active. This excerpt belongs to a sample that is enriched for actives.
metric.name: inhibition (%)
Give bare numbers, in %.

Completed entries (count: 5):
[
  {
    "molecule": "O=c1c2ccccc2nc2n1C(CSCc1ccccc1)CS2 (stereo not drawn)",
    "target.of.assay": "Protein artemis (Homo sapiens) (UniProt Q96SD1)",
    "observed": 2.82
  },
  {
    "molecule": "c1ccc(-c2nccc(-c3ccc(-n4cnc5ccccc54)cc3)n2)nc1",
    "target.of.assay": "Protein artemis (Homo sapiens) (UniProt Q96SD1)",
    "observed": 100
  },
  {
    "molecule": "COc1ccccc1NC(=O)CSc1nnc(C)n1CC1CCCO1 (stereo not drawn)",
    "target.of.assay": "Protein artemis (Homo sapiens) (UniProt Q96SD1)",
    "observed": 2.59
  },
  {
    "molecule": "CC(C)(O)C(=O)NN(C(=O)c1ccccc1)c1cccc(Br)c1",
    "target.of.assay": "Protein artemis (Homo sapiens) (UniProt Q96SD1)",
    "observed": -17.1
  },
  {
    "molecule": "Cc1cc(C)n(-c2nc(SCC(=O)N3CCCC3)c3c4c(sc3n2)CCCC4)n1",
    "target.of.assay": "Protein artemis (Homo sapiens) (UniProt Q96SD1)",
    "observed": 40.1
  }
]

Please look at the items below and tell me inhibition for each one, in order.
1. COCc1cc(C)nc2sc(C(=O)NC3CCCCC3)c(N)c12
2. CC(C)NC(=O)CSc1ccccc1C(=O)NCc1ccc2c(c1)OCO2
3. O=C(/C=C/c1cc2c(cc1Br)OCO2)NCc1ccc(Cl)cc1
4. Cc1cc(N=CC2=C(O)CCCC2=O)no1
5. COCCn1c(C)cc(C(=O)CSc2ncnc3sc4c(c23)CCC4)c1C
6. COCCNc1nc(-n2nc(C)cc2C)nc2sc3c(c12)CCCC3
7. Cc1ccc(-n2c(C)cc(/C=N/Nc3ccc([N+](=O)[O-])cn3)c2C)c(C)c1

[-2.12, -4.49, -4.49, -4.13, -1.83, 52.7, 14.4]

Please look at the items below and tell me inhibition for each one, in order.
1. Fc1ccc(Br)cc1/C=N/n1cnnc1
2. CCOC(=O)C(=CNc1cccc(C)n1)C(=O)OCC
3. C=CCn1c(SCC(=O)c2c(N)n(C)c(=O)n(C)c2=O)nc2sc(CC)cc2c1=O
4. COc1ccc(C2C(C(C)=O)=C(O)C(=O)N2c2nccs2)cc1 (stereo not drawn)
5. COc1ccc(/C=C2/S/C(=N/N=C3\CC4CCC3(C)C4(C)C)NC2=O)cc1 (stereo not drawn)

-9.95
-3.58
9.01
-6.55
7.63
